# targetEntity: GST-Bcl-XL (Homo sapiens, UniProt Q07817)
# Sequence (Q07817 whole entry): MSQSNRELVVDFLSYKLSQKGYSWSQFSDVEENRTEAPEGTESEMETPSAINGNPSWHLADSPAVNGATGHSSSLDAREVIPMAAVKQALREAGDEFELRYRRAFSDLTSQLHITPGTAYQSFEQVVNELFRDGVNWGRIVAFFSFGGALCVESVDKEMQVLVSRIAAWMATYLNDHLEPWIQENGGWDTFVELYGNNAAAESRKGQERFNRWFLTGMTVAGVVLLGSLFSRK
# assayComment: TR-FRET binding assay, GST-Bcl-XL with F-Bak peptide probe
# testConditions: TR-FRET Binding Affinity, GST-Bcl-XL, F-Bak peptide probe
Kindly state Ki for each of the entries shown.
Give bare numbers, in nM.

Go through the list and state Ki for each entry.
1. O=C(NS(=O)(=O)c1ccc(NCC2CCOCC2)c([N+](=O)[O-])c1)c1ccc(N2CCN(Cc3ccccc3-c3ccc(Cl)cc3)CC2)cc1Oc1cccnc1 [Example 79]
2. O=C(NS(=O)(=O)c1ccc(NCC2CCOCC2)c([N+](=O)[O-])c1)c1ccc(N2CCN(Cc3c(OCCN4CCOCC4)cccc3-c3ccc(Cl)cc3)CC2)cc1Oc1ccc2[nH]ccc2c1 [Example 132]
3. CC1(C)CCC(CN2CCN(c3ccc(C(=O)NS(=O)(=O)c4ccc(NCCC#N)c([N+](=O)[O-])c4)c(Oc4ccc5[nH]ccc5c4)c3)CC2)=C(c2ccc(Cl)cc2)C1 [Example 319]

97.2
315
208

Hey, just so you know, these numbers are from patent US9073855B2.
